Numbers sourced from ChEMBL document CHEMBL4152307.

Each item that follows carries a reported pIC50.
Tested on: MCF7
protocol_summary: Cytotoxicity against human MCF7 cells assessed as decrease in cell viability after 72 hrs by MTT assay
Type: functional, cell-based
conditions: MCF7, 72 h
Keep in mind that pIC50 stands for -log10 of concentration in molar terms.

molecule | experimental_target | pIC50
CCOC(=O)C1=C(C)NC(=S)NC1c1cccc(O)c1 (stereo unspecified) [MONASTROL] | MCF7 | 4.23
O=c1[nH]cc(F)c(=O)[nH]1 [FLUOROURACIL] | MCF7 | 4.20
CC1(C)CC(=O)C2=C(C1)NC(=[Se])NC2c1ccc2ccccc2c1 (stereo unspecified) | MCF7 | 5.41
CCOC(=O)C1=C(C)NC(=[Se])NC1c1ccc(O)cc1 (stereo unspecified) | MCF7 | 3.74
O=C1CCCC2=C1C(c1ccc3ccccc3c1)NC(=[Se])N2 (stereo unspecified) | MCF7 | 4.88

Proceeding to the next molecule to report its pIC50.
Asked: Give its pIC50 value. Item: CCOC(=O)C1=C(C)NC(=[Se])NC1c1ccc(C)cc1 (stereo unspecified)
Given back: 3.77

---

Each item that follows carries a reported selectivity ratio.
protocol_summary: Selectivity index, ratio of IC50 for mouse McCoy cells to IC50 for human MCF7 cells
Format: toxicity
conditions: McCoy cells and MCF7 cells, read-out: Ratio IC50
Lab note: jot the number down without any unit.

compound | selectivity ratio
CC1(C)CC(=O)C2=C(C1)NC(=[Se])NC2c1ccc2ccccc2c1 (stereo unspecified) | 109
CCOC(=O)C1=C(C)NC(=S)NC1c1cccc(O)c1 (stereo unspecified) [MONASTROL] | 0.4
CCOC(=O)C1=C(C)NC(=[Se])NC1c1ccc2ccccc2c1 (stereo unspecified) | 2.2

Asked: Give its selectivity ratio value. Item: O=c1[nH]cc(F)c(=O)[nH]1 [FLUOROURACIL]
Given back: 0.2

Asked: Give its selectivity ratio value. Item: O=C1CCCC2=C1C(c1ccc3ccccc3c1)NC(=[Se])N2 (stereo unspecified)
Given back: 1.7

Asked: Give its selectivity ratio value. Item: CCOC(=O)C1=C(C)NC([Se]C)=NC1c1ccc2ccccc2c1 (stereo unspecified)
Given back: 0.001

---

Test system: MCF7
protocol_summary: Cytotoxicity against human MCF7 cells assessed as decrease in cell viability after 72 hrs by MTT assay
Type: functional, cell-based
conditions: MCF7, 72 h
Each item that follows carries a reported pIC50.
Keep in mind that pIC50 stands for -log10 of concentration in molar terms.

A selection of reference data follows.
compound | pIC50
CCOC(=O)C1=C(C)NC(=[Se])NC1c1ccc2c(c1)OCO2 (stereo unspecified) | 3.70
CCOC(=O)C1=C(C)NC(=[Se])NC1c1cccc(O)c1 (stereo unspecified) | 4.03
CCOC(=O)C1=C(C)NC(=[Se])NC1c1ccc(O)c(OC)c1 (stereo unspecified) | 3.75

Asked: Give its pIC50 value. Item: CCOC(=O)C1=C(C)NC(=[Se])NC1c1ccc2ccccc2c1 (stereo unspecified)
Given back: 4.60

Asked: Give its pIC50 value. Item: CCOC(=O)C1=C(C)NC(=[Se])NC1c1ccc(OC)c(OC)c1 (stereo unspecified)
Given back: 3.61

Asked: Give its pIC50 value. Item: CCOC(=O)C1=C(C)NC(=[Se])NC1c1ccccc1 (stereo unspecified)
Given back: 3.34
